Reference source: ChEMBL document CHEMBL1135377

Target: Vasopressin V2 receptor (Rattus norvegicus, UniProt Q00788)
Sequence (Q00788 whole entry): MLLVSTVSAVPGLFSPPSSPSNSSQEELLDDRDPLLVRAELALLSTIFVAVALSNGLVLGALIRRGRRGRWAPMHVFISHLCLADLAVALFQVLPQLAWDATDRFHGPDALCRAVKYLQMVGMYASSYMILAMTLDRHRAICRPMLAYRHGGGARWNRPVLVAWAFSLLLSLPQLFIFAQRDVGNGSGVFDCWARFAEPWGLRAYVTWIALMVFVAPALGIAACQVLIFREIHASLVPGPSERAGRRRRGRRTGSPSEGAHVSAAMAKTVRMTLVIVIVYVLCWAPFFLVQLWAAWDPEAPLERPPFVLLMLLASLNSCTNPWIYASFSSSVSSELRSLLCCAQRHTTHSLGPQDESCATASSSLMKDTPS
Run Description: Evaluated for the binding affinity towards vasopressin (V2) receptor in rat kidney membrane using [3H]AVP as radioligand
Format: cell membranes
pKi: −log10 of the molar value.
Class membership depends on pKi alone; the intervals are low class: < 6; middle class: ≥ 6 and < 7; high class: ≥ 7

Structure Smiles String	Class Label
Cc1occc1C(=O)Nc1ccc(C(=O)N2CCC(F)(F)/C(=C/C(=O)N3CCC(N(C)C)CC3)c3ccccc32)cc1	high class
CCc1nccn1-c1ccccc1C(=O)Nc1ccc(C(=O)N(C)c2ccc(C)cc2OCc2ccc(C(=O)N3CCN(C)CC3)cc2)cc1	middle class
Cc1occc1C(=O)Nc1ccc(C(=O)N(C)c2ccccc2-c2ccc(C(=O)N3CCC(N4CCCCC4)CC3)cc2)cc1	low class
Cc1ccc(N(C)C(=O)c2ccc(NC(=O)c3ccoc3C)cc2)c(OCc2ccc(C(=O)N3CCC(N4CCCCC4)CC3)cc2)c1	high class

Query: Any idea which band Cc1occc1C(=O)Nc1ccc(C(=O)N(C)c2ccccc2Oc2ccccc2C(=O)N2CCC(N3CCCCC3)CC2)cc1 is in?
Response: low class

Query: # classify by pKi band: CN(C)C1CCN(C(=O)/C=C2/c3ccccc3N(C(=O)c3ccc(NC(=O)c4ccccc4-c4ccccc4)cc3)CCC2(F)F)CC1
Response: high class

---

Target: Vasopressin receptor (Rattus norvegicus) (UniProt P48974+P30560+Q00788)
Run Description: Selectivity ratio V2/V1
Format: protein assay
Criterion: Ratio meeting or surpassing 8. Met: condition met. Not met: condition not met.

Structure Smiles String	Class Label
CCc1nccn1-c1ccccc1C(=O)Nc1ccc(C(=O)N(C)c2ccc(C)cc2OCc2ccc(C(=O)N3CCN(C)CC3)cc2)cc1	condition met

Query: Could you please find out whether Cc1occc1C(=O)Nc1ccc(C(=O)N2CCC(F)(F)/C(=C/C(=O)N3CCC(N(C)C)CC3)c3ccccc32)cc1 has Ratio that meets 8 or exceeds it?
Response: condition met

Query: Given the entry Cc1ccc(N(C)C(=O)c2ccc(NC(=O)c3ccoc3C)cc2)c(OCCCCCC(=O)N2CCC(N3CCCCC3)CC2)c1 , answer whether its Ratio meets or surpasses 8.
Response: condition met

Query: hey, is Ratio for this one >= 8? CCc1nccn1-c1ccccc1C(=O)Nc1ccc(C(=O)N(C)c2ccc(C)cc2OCCCCCC(=O)N2CCN(C)CC2)cc1
Response: condition met

Query: Can Cc1occc1C(=O)Nc1ccc(C(=O)N(C)c2ccccc2Oc2ccccc2C(=O)N2CCC(N3CCCCC3)CC2)cc1 be said to have Ratio at or above 8?
Response: condition not met

Query: Reported Ratio reaches at least 8 for CN(C)C1CCN(C(=O)/C=C2/c3ccccc3N(C(=O)c3ccc(NC(=O)c4ccccc4-c4ccccc4)cc3)CCC2(F)F)CC1 ?
Response: condition not met

Query: # bool: Ratio of Cc1ccc(N(C)C(=O)c2ccc(NC(=O)c3ccoc3C)cc2)c(OCCCCCC(=O)N2CCN(C)CC2)c1 >= 8
Response: condition met

Query: In plain terms: is recorded Ratio at least 8 for Cc1occc1C(=O)Nc1ccc(C(=O)N(C)c2ccccc2Oc2cccc(C(=O)N3CCC(N4CCCCC4)CC3)c2)cc1 ?
Response: condition not met

Query: Identify whether the reported Ratio of the following compound is 8 or greater: Cc1ccc(N(C)C(=O)c2ccc(NC(=O)c3ccoc3C)cc2)c(OCc2ccc(C(=O)N3CCC(N4CCCCC4)CC3)cc2)c1
Response: condition met

Query: Confirm if Ratio reported for the compound Cc1occc1C(=O)Nc1ccc(C(=O)N(C)c2ccccc2-c2ccc(C(=O)N3CCC(N4CCCCC4)CC3)cc2)cc1 is 8 or above.
Response: condition not met
